# TGI values compiled below
# Tested on: CAKI-1 renal
# assay: NCI tumour cell line growth inhibition, 48 h
property: TGI

# compound, property, valueMeasured
records = [
    ("CC(=O)CC(=O)N1CCOC1=O", "TGI", "> 10 µM"),
    ("NC(=O)NC(=O)C1CCC(=O)N1S(=O)(=O)c1ccc(Cl)cc1 (stereo not given)", "TGI", "> 100 µM"),
    ("CCN(CC)CCCNc1nnc(C)c2[nH]c3ccccc3c12", "TGI", "> 100 µM"),
    ("COc1ccc2c(C=O)c3n(c(=O)c2c1OC)CCc1cc2c(cc1-3)OCO2", "TGI", "> 100 µM"),
    ("O=C(c1ccccc1)c1ccc(N2C(=O)C3C4c5ccccc5C(/C=C/C(=O)c5ccccn5)(c5ccccc54)C3C2=O)cc1 (stereo not given)", "TGI", "> 100 µM"),
    ("CC1=C2[C@@H](c3ccccc3)C3C=CC2(C=C3C(F)(F)F)N(C(=O)NC2CCCCC2)C1=O (stereo not given in full)", "TGI", "> 100 µM"),
    ("Cn1c(=O)c(-c2c(Cl)cccc2Cl)cc2cnc(Nc3ccc(N4CCOCC4)cc3)nc21", "TGI", "0.0806 µM"),
    ("CCOC(=O)C1(NC(=O)OC(C)(C)C)CCc2[nH]oc(=O)c2C1 (stereo not given)", "TGI", "> 100 µM"),
    ("COc1cc([C@H]2c3cc(O)c(OC)cc3C[C@]3(O)[C@@H]2CO[C@@H]3O)ccc1O", "TGI", "> 100 µM"),
    ("O=NNc1nc(-c2ccccn2)nc2ccccc12", "TGI", "> 100 µM"),
    ("O=C(C[N+]1(c2ccccc2)CCOCC1)c1ccccc1", "TGI", "> 100 µM"),
    ("COc1ccc(Cl)cc1Nc1nc(C(F)(F)F)ccc1C(=O)N/N=C/c1ccc(Cl)cc1", "TGI", "29.7 µM"),
    ("O=CC12CCCN1CCC2", "TGI", "> 100 µM"),
    ("Cc1cc(NS(=O)(=O)c2ccc(NC(NC(=O)OC(C)C)(C(F)(F)F)C(F)(F)F)cc2)nc(C)n1", "TGI", "> 100 µM"),
    ("COC(=O)C(NC(=O)c1ccccc1)c1ccc(OC)c(I)c1 (stereo not given)", "TGI", "> 100 µM"),
    ("Brc1ccc2c(c1)-c1ccccc1C1=NCCN12", "TGI", "7.92 µM"),
    ("O=C1CSC(c2cccc(Oc3ccccc3)c2)N1c1cc(Cl)ccc1Cl (stereo not given)", "TGI", "48.8 µM"),
    ("CC(C)(CCc1nc2ccccc2[nH]1)C(=O)O", "TGI", "> 100 µM"),
    ("NNC(=O)COc1nc(-c2cccs2)nc2ccc(I)cc12", "TGI", "44.1 µM"),
    ("CCOP(=O)(OCC)/C(C#N)=C(\\C)c1ccco1", "TGI", "> 10 µM"),
]

From: PubChem BioAssay (NCI)
